Documented IC50 across a set of binders
- Tgt: T1, human CCR8 (human, UniProt P51685 1-355)
- T1 construct: whole, on cells; the cell line is named under assay; also called hCCR8
- Measurement notes: flow cytometry, competition with 10 nM AF647-human CCL1 on 293F-hCCR8 cells
Provide only the numeric value, understood in µg/mL.

Past entries and their recorded results:
Binder	IC50 (µg/mL)
27B9-1G3_hzH3L2_hIgG1 (antibody, V domains shown, Humanized, hIgG1/K; hzVH03 + hzVL02) VH: QVQLVQSGAEVKKPGSSVKVSCKASGGTFSGYNMNWVRQAPGQGLEWMGNIDPYYGGTNYNQKFKGKATITADKSTSTAYMELSSLRSEDTAVYYCARETWFITTGVIKKGFYFDYWGQGTTVTVSS VL: EIVLTQSPATLSLSPGERATLACSASSIISSNYLHWYQQKPGQAPRLLIYRTSSLASGIPARFSGSGSGTDYTLTISSLEPEDFAVYYCQQGSSIPRTFGGGTKVEIKR	0.15
27B9-1G3_hzH4L2_hIgG1 (antibody, V domains shown, Humanized, hIgG1/K; hzVH04 + hzVL02) VH: QVQLVQSGAEVKKPGSSVKVSCKASGYSFTGYNMNWVRQAPGQGLEWMGNIDPYYGGTNYNQKFKGKATITADKSTSTAYMELSSLRSEDTAVYYCARETWFITTGVIKKGFYFDYWGQGTTVTVSS VL: EIVLTQSPATLSLSPGERATLACSASSIISSNYLHWYQQKPGQAPRLLIYRTSSLASGIPARFSGSGSGTDYTLTISSLEPEDFAVYYCQQGSSIPRTFGGGTKVEIKR	0.162

Prompt: # query: IC50 of entry 27B9-1G3_hIgG1 (antibody, V domains shown, also called hIgG1-subclass chimeric antibody 27B9-1G3) VH: EIQLQQSGPELEKPGASVKISCKASGYSFTGYNMNWVKKSNGKSLEWIGNIDPYYGGTNYNQKFKGKATLTVDKSSSTAYMQLKSLTSEDSAVYYCARETWFITTGVIKKGFYFDYWGQGTTLTVSS VL: EIVLTQSPTTMAASPGEKITLACSASSIISSNYLHWYQQKPGFSPKLLIYRTSSLASGVPARFSGSGSGTSYSLTIGTMEAEDVATYYCQQGSSIPRTFGGGTKLEIKR
Response: 0.0959
